EXPERIMENTAL_SYSTEM: Glutamate NMDA receptor
EXPERIMENT: The compound was evaluated for binding affinity against NMDA receptor ion-channel site using [3H]-MK 801 radioligand in rat brain membranes
EXPERIMENTAL_ENDPOINT: pIC50
The meaning of pIC50 here: minus log10 of the concentration in molar units.

Supply measured pIC50 of C/C(=N\C12CC3CC(CC(C3)C1)C2)NC12CC3CC(CC(C3)C1)C2 in your reply.
5.00

Please give the documented pIC50 of C/C(=N\c1ccccc1C)Nc1ccccc1C
5.00

Hello, please tell me recorded pIC50 for this one: C/C(=N\c1ccc(Br)cc1C)Nc1ccc(Br)cc1C
5.04

Specify reported pIC50 for the molecule shown: C/C(=N\C1CCCCC1)Nc1ccccc1C
5.00

Consider the molecule C/C(=N\C12CC3CC(CC(C3)C1)C2)Nc1ccccc1C and give its recorded pIC50.
5.00

For the molecule C/C(=N\C1CC2CCC1C2)Nc1ccccc1C (configuration not stated) , give its measured pIC50 value.
4.10

Look up and report measured pIC50 for this entry: C/C(=N\C1CCCCC1)NC12CC3CC(CC(C3)C1)C2
5.00

Origin of values: ChEMBL document CHEMBL1127129
